Reported IC50 is given for each of the following compounds.
# Tested On: ABL1 (Homo sapiens)
# Construct: purchased Carna Biosciences
# Sequence (P00519 whole entry): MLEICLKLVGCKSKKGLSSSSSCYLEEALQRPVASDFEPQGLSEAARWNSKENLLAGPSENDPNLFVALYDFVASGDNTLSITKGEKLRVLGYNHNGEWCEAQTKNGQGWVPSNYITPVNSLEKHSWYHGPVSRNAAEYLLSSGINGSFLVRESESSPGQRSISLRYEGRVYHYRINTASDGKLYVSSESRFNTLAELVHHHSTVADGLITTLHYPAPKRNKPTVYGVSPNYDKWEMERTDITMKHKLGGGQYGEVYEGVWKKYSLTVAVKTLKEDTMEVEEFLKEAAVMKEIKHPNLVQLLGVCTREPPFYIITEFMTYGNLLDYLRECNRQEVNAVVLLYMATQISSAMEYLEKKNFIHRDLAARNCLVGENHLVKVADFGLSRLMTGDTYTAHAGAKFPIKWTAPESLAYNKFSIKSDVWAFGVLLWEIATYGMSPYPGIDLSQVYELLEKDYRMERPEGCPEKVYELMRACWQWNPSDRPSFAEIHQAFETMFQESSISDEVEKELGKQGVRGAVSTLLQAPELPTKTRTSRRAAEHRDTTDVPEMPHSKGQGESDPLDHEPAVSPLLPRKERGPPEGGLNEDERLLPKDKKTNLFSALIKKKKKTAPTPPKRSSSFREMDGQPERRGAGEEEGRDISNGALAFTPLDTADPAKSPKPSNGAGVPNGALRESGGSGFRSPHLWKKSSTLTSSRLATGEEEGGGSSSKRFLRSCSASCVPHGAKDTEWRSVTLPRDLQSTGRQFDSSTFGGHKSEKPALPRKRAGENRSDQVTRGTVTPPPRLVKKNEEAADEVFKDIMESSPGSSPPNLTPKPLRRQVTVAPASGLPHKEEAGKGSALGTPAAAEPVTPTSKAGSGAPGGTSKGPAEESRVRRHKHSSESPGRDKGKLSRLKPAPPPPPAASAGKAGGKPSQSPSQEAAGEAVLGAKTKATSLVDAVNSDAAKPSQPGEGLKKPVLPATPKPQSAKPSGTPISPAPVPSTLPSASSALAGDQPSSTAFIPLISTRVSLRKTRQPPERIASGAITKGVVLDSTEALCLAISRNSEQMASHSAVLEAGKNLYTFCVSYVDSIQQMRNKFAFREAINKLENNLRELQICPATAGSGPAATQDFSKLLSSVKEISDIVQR
# Protocol Text: Luminescence-based ABL kinase assay (ADP-Glo, 300 μM ATP)
# Format: biochemical
Observation Type: IC50 (nM)

{"columns": ["Compound", "Tested On", "Observation Type", "Measurement Units", "Result"],
 "data": [
  ["COc1cccc(OC)c1-c1c[nH]c2nc(NC(=O)NCCN3CCN(C)CC3)ccc12", "ABL1 (Homo sapiens)", "IC50", "nM", 11.3],
  ["COc1cc2[nH]nnc2cc1-c1c[nH]c2nc(NC(=O)[C@@H]3C[C@@H]3F)ccc12", "ABL1 (Homo sapiens)", "IC50", "nM", 8.87],
  ["COc1cc2[nH]cnc2cc1-c1c[nH]c2nc(NC(=O)[C@@H]3C[C@@H]3F)ccc12", "ABL1 (Homo sapiens)", "IC50", "nM", 4.33],
  ["COc1cc2scnc2cc1-c1c[nH]c2nc(NC(=O)[C@@H]3C[C@@H]3F)ccc12", "ABL1 (Homo sapiens)", "IC50", "nM", 5.34],
  ["COc1nc2ncsc2cc1-c1c[nH]c2nc(NC(=O)[C@@H]3C[C@@H]3F)ccc12", "ABL1 (Homo sapiens)", "IC50", "nM", 3.74],
  ["COc1ncnc(OC2CC2)c1-c1c[nH]c2nc(NC(=O)[C@@H]3C[C@@H]3F)ccc12", "ABL1 (Homo sapiens)", "IC50", "nM", 4.65],
  ["COc1nccc(OC2CC2)c1-c1c[nH]c2nc(NC(=O)[C@@H]3C[C@H]3OCCN(C)C)ccc12", "ABL1 (Homo sapiens)", "IC50", "nM", 6.71],
  ["Nc1ncccc1-c1c[nH]c2nc(NC(=O)C3CC3)ccc12", "ABL1 (Homo sapiens)", "IC50", "nM", 202],
  ["COc1ccccc1-c1n[nH]c2nc(NC(=O)C3CC3)ccc12", "ABL1 (Homo sapiens)", "IC50", "nM", 23.1],
  ["COc1c(F)cccc1-c1n[nH]c2nc(NC(=O)[C@@H]3C[C@@H]3F)ccc12", "ABL1 (Homo sapiens)", "IC50", "nM", 98.2],
  ["O=C(Nc1ccc2c(-c3c(F)cccc3OC3CC3)c[nH]c2n1)[C@@H]1C[C@@H]1F", "ABL1 (Homo sapiens)", "IC50", "nM", 22.1],
  ["COc1ncccc1-c1c[nH]c2nc(NC(=O)[C@@H]3C[C@@H]3F)ccc12", "ABL1 (Homo sapiens)", "IC50", "nM", 29],
  ["COc1cccc(OC)c1-c1c[nH]c2nc(NC(=O)C3CC3CCN(C)C)ccc12 (single isomer, unassigned) [Example S205, Enantiomer 2]", "ABL1 (Homo sapiens)", "IC50", "nM", 15],
  ["COc1ccccc1-c1c[nH]c2nc(NC(=O)NCCN(C)C)ccc12", "ABL1 (Homo sapiens)", "IC50", "nM", 199],
  ["COc1ccccc1-c1c[nH]c2nc(NC(=O)NCCN3CCOCC3)ccc12", "ABL1 (Homo sapiens)", "IC50", "nM", 91.1],
  ["CCN1CCN(CCNC(=O)Nc2ccc3c(-c4ccccc4OC)c[nH]c3n2)CC1", "ABL1 (Homo sapiens)", "IC50", "nM", 39]
]}
